Test system: Nonstructural protein 5A (Hepatitis C virus), Q5L478 [Y93H]
Sequence (Q5L478 entry or part of it Y93H): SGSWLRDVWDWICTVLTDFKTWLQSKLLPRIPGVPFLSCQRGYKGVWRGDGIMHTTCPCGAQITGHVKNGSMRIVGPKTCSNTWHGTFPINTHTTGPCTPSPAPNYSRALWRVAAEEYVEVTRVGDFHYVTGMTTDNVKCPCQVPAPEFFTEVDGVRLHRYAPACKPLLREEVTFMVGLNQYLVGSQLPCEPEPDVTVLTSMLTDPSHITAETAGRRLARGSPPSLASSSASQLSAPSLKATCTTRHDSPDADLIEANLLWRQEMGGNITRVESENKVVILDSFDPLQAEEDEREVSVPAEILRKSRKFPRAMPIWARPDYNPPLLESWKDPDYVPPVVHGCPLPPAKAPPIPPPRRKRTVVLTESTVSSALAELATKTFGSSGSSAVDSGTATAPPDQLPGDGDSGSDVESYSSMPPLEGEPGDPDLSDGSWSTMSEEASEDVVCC
Assay: Inhibition of NS5A Y93H mutant in HuH7 cell infected HCV genotype 1b Con1 assessed as decrease in viral replication after 4 days by luciferase reporter gene assay relative to wild type protein
Conditions: Hepatitis C virus (isolate Con1)
Metric: fold change (FC)
// no unit string in output, number only

Compound	Tested Target	Quantitative Readout
COC(=O)N[C@H](C(=O)N1CCC[C@H]1c1nc2cc(F)c([C@H]3CC[C@H](c4cc5[nH]c([C@@H]6CCCN6C(=O)[C@@H](NC(=O)OC)C(C)C)nc5cc4F)N3c3cc(F)c(N4CCC(c5ccccc5)CC4)c(F)c3)cc2[nH]1)C(C)C	Nonstructural protein 5A (Hepatitis C virus), Q5L478 [Y93H]	1
COC(=O)N[C@H](C(=O)N1CCC[C@H]1c1nc2cc([C@H]3CC[C@H](c4ccc5[nH]c([C@@H]6CCCN6C(=O)[C@@H](NC(=O)OC)C(C)C)nc5c4)N3c3cc(F)c(N4CCCCC4)c(F)c3)ccc2[nH]1)C(C)C	Nonstructural protein 5A (Hepatitis C virus), Q5L478 [Y93H]	1
COC(=O)N[C@H](C(=O)N1CCC[C@H]1c1nc2ccc([C@H]3CC[C@H](c4ccc5nc([C@@H]6CCCN6C(=O)[C@@H](NC(=O)OC)C(C)C)[nH]c5c4)N3c3ccc(C(C)(C)C)cc3)cc2[nH]1)C(C)C	Nonstructural protein 5A (Hepatitis C virus), Q5L478 [Y93H]	2

Task: Entry COC(=O)N[C@H](C(=O)N1CCC[C@H]1c1nc2cc([C@H]3CC[C@H](c4cc5nc([C@@H]6CCCN6C(=O)[C@@H](NC(=O)OC)[C@@H](C)OC)[nH]c5cc4F)N3c3cc(F)c(N4CCC(c5ccc(F)cc5)CC4)c(F)c3)c(F)cc2[nH]1)[C@@H](C)OC [PIBRENTASVIR] has what fold change (FC)?
Result: 0.6

----------
Test: Volume of distribution at steady state in mouse at 3 mg/kg, iv by LC-MS method
Format: ADME, organism-based
Conditions: in vivo, read-out: Vdss
Metric: Vd (L/kg)
Give the value, in units of L/kg, as a plain number.

Task: Entry COC(=O)N[C@H](C(=O)N1CCC[C@H]1C(=O)Nc1ccc([C@@H]2CC[C@@H](c3ccc(NC(=O)[C@@H]4CCCN4C(=O)[C@@H](NC(=O)OC)C(C)C)cc3)N2c2ccc(C(C)(C)C)cc2)cc1)C(C)C [OMBITASVIR] has what Vd?
Result: 1.67

----------
Experiment: AUClast in mouse at 3 mg/kg, po by LC-MS method
Format: ADME, organism-based
Set-up: dose 3 mg/kg, time 0 - last, route oral
Details: in vivo
Metric: AUC(0-t) (ng·h/mL)
Give the value, in units of ng·h/mL, as a plain number.

Task: Entry COC(=O)N[C@H](C(=O)N1CCC[C@H]1c1nc2cc([C@H]3CC[C@H](c4cc5nc([C@@H]6CCCN6C(=O)[C@@H](NC(=O)OC)[C@@H](C)OC)[nH]c5cc4F)N3c3cc(F)c(N4CCC(c5ccc(F)cc5)CC4)c(F)c3)c(F)cc2[nH]1)[C@@H](C)OC has what AUC(0-t)?
Result: 20000

----------
Assay: Tmax in rat at 3 mg/kg, po by LC-MS method
Format: ADME, organism-based
Conditions: in vivo
Metric: Tmax (h)
Give the value, in units of h, as a plain number.

Task: Entry COC(=O)N[C@H](C(=O)N1CCC[C@H]1c1nc2cc([C@H]3CC[C@H](c4cc5nc([C@@H]6CCCN6C(=O)[C@@H](NC(=O)OC)[C@@H](C)OC)[nH]c5cc4F)N3c3cc(F)c(N4CCC(c5ccc(F)cc5)CC4)c(F)c3)c(F)cc2[nH]1)[C@@H](C)OC has what Tmax?
Result: 5.3

This collection of values is drawn from ChEMBL document CHEMBL4177761.
